Test system: U2OS
assay_overview: Multiplex assay against U2OS
Format: toxicity, cell-based
run_conditions: human, 12 h, 10 µM, compound concentration 10 uM, replicate 1
Hi, to clarify the labels: TRUE covers Population Healthy Nuclei (%) from 60% upward, FALSE covers anything below 60%.

molecule: COc1cc2nc(N3CCN(C(=O)c4ccco4)CC3)nc(N)c2cc1OC.Cl [PRAZOSIN HYDROCHLORIDE]
experimental_system: U2OS
classification: TRUE
--
molecule: CCc1nn2c(C)cc(C)nc2c1Cc1ccc(-c2nnc(C3CCNCC3)o2)cc1
experimental_system: U2OS
classification: FALSE
--
molecule: CN1C[C@H](C(=O)N[C@]2(C)O[C@@]3(O)[C@@H]4CCCN4C(=O)[C@H](Cc4ccccc4)N3C2=O)C[C@@H]2c3cccc4[nH]cc(c34)C[C@H]21.CS(=O)(=O)O [DIHYDROERGOTAMINE MESYLATE]
experimental_system: U2OS
classification: TRUE
--
molecule: COc1cc(OC2CCN(C(C)=O)CC2)ccc1C(=O)N1CCC(N2C(=O)OCc3ccccc32)CC1
experimental_system: U2OS
classification: TRUE
--
molecule: OCCCNc1cc(-c2ccnc(Nc3cccc(Cl)c3)n2)ccn1
experimental_system: U2OS
classification: FALSE
